- assay.target: hNTS1 (Homo sapiens, UniProt P30989)
- Construct: expressed in transfected cells; host or cells: CHO-K1
- Sequence (P30989 whole entry): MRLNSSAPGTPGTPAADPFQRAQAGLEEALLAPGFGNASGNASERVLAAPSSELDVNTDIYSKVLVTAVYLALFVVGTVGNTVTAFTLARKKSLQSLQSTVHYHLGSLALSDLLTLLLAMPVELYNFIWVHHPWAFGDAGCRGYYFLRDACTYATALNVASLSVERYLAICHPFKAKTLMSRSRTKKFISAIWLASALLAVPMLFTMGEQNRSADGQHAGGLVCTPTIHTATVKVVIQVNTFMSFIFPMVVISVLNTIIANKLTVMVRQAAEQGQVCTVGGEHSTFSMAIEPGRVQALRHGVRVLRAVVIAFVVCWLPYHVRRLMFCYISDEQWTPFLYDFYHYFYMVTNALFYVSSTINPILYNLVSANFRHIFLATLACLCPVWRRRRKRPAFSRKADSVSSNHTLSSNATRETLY
- measurement.notes: Radioligand competition binding with [3H]NT, membranes of CHO-K1 cells expressing hNTS1
- assay.context: Table 2; hNTS1 over hNTS2
Where a SMILES comes first, the peptide text is derived from it. [ ]: non-standard residue; d: D form. Ala(indol-4-yl) = N[C@@H](Cc1cccc2[nH]ccc12)C(=O)O; pGlu = O=C1CC[C@@H](C(=O)O)N1; Tle = CC(C)(C)[C@H](N)C(=O)O; dOrn = NCCC[C@@H](N)C(=O)O; Orn = NCCC[C@H](N)C(=O)O; Dab = NCC[C@H](N)C(=O)O
Listed here: items and their measured hNTS1 Selectivity.
// return a plain number; no unit text

Examples with their reported hNTS1 Selectivity follow.
CC[C@H](C)[C@H](NC(=O)[C@H](Cc1ccc(O)cc1)NC(=O)[C@@H]1CCCN1C(=O)[C@H](CCCN)NC(=O)[C@H](N)CCCN)C(=O)N[C@@H](CC(C)C)C(=O)O [NT27, [D-Orn^8,L-Orn^9]NT(8-13)] = 6.6
CC[C@H](C)[C@H](NC(=O)[C@H](Cc1ccc(O)cc1)NC(=O)[C@@H]1CCCN1C(=O)[C@H](CCCN)NC(=O)[C@H](CCCNC(=N)N)NC(=O)[C@@H]1CCCN1C(=O)[C@H](CCCCN)NC(=O)[C@H](CC(N)=O)NC(=O)[C@H](CCC(=O)O)NC(=O)[C@H](Cc1ccc(O)cc1)NC(=O)[C@H](CC(C)C)NC(=O)[C@@H]1CCC(=O)N1)C(=O)N[C@@H](CC(C)C)C(=O)O [NT60, [L-Orn^9]NT(1-13)] ([pGlu]LYENKPR[Orn]PYIL-OH; C-terminus assumed) = 5.4
CC[C@H](C)[C@H](NC(=O)[C@H](Cc1ccc(O)cc1)NC(=O)[C@@H]1CCCN1C(=O)[C@@H](N)CCCN)C(=O)N[C@@H](CC(C)C)C(=O)O [NT34, [L-Orn^9]NT(9-13)] (H-[Orn]PYIL-OH; N-terminus and C-terminus assumed) = 4.0
CC(C)C[C@H](NC(=O)[C@@H](NC(=O)[C@H](Cc1cccc2[nH]ccc12)NC(=O)[C@@H]1CCCN1C(=O)[C@@H](CCCN)NC(=O)[C@@H](N)CCCNC(=N)N)C(C)(C)C)C(=O)O [NT77] (H-R[dOrn]P[Ala(indol-4-yl)][Tle]L-OH; N-terminus and C-terminus assumed) = 0.3
CC[C@H](C)[C@H](NC(=O)[C@H](Cc1c[nH]c2ccccc12)NC(=O)[C@@H]1CCCN1C(=O)[C@H](CCCNC(=N)N)NC(=O)[C@H](N)CCCCN)C(=O)N[C@@H](CC(C)C)C(=O)O [NT67T, [D-Lys^8,L-Trp^11]NT(8-13)] (H-[dK]RPWIL-OH; N-terminus and C-terminus assumed) = 0.5

Prompt: Consider the compound CC[C@H](C)[C@H](NC(=O)[C@H](Cc1ccc(O)cc1)NC(=O)[C@@H]1CCCN1C(=O)[C@H](CCCNC(=N)N)NC(=O)[C@H](N)CCCN)C(=O)N[C@@H](CC(C)C)C(=O)O [NT22, [D-Orn^8]NT(8-13)] (H-[dOrn]RPYIL-OH; N-terminus and C-terminus assumed) and give its measured hNTS1 Selectivity.
Completion: 3.2

Prompt: Data request, read-out hNTS1 Selectivity, for CC(C)C[C@H](NC(=O)[C@@H](NC(=O)[C@H](Cc1c[nH]c2ccccc12)NC(=O)[C@@H]1CCCN1C(=O)[C@@H](CCCN)NC(=O)[C@@H](N)CCCNC(=N)N)C(C)(C)C)C(=O)O [NT77T, [D-Orn^9,L-Trp^11,tert-Leu^12]NT(8-13)] (H-R[dOrn]PW[Tle]L-OH; N-terminus and C-terminus assumed)
Completion: 0.2

Prompt: Requested read-out: hNTS1 Selectivity. Entry: CC(C)C[C@H](NC(=O)[C@@H](NC(=O)[C@H](Cc1cccc2[nH]ccc12)NC(=O)[C@@H]1CCCN1C(=O)[C@H](CCCNC(=N)N)NC(=O)[C@@H](N)CCCNC(=N)N)C(C)(C)C)C(=O)O [NT65, [neo-Trp^11,tert-Leu^12]NT(8-13)] (H-RRP[Ala(indol-4-yl)][Tle]L-OH; N-terminus and C-terminus assumed)
Completion: 0.5

Prompt: I would be grateful if you could share the reported hNTS1 Selectivity for CC[C@H](C)[C@H](NC(=O)[C@H](Cc1ccc(O)cc1)NC(=O)[C@@H]1CCCN1C(=O)[C@H](CCCNC(=N)N)NC(=O)[C@@H](N)CCN)C(=O)N[C@@H](CC(C)C)C(=O)O [NT29, [DAB^8]NT(8-13)] (H-[Dab]RPYIL-OH; N-terminus and C-terminus assumed) .
Completion: 5.6

Prompt: # hNTS1 Selectivity lookup, item CC[C@H](C)[C@H](NC(=O)[C@H](Cc1ccc(O)cc1)NC(=O)[C@@H]1CCCN1C(=O)[C@@H](CCCN)NC(=O)[C@@H](N)CCCN)C(=O)N[C@@H](CC(C)C)C(=O)O [NT26, [L-Orn^8,D-Orn^9]NT(8-13)]
Completion: 3.0

Prompt: What value of hNTS1 Selectivity has been recorded for this entry: CC[C@H](C)[C@H](NC(=O)[C@H](Cc1cccc2[nH]ccc12)NC(=O)[C@@H]1CCCN1C(=O)[C@H](N)CCCCN)C(=O)N[C@@H](CC(C)C)C(=O)O [NT73, [D-Lys^9,L-neo-Trp^11]NT(9-13)] (H-[dK]P[Ala(indol-4-yl)]IL-OH; N-terminus and C-terminus assumed)
Completion: 5.5

Prompt: Please report the recorded hNTS1 Selectivity for CC[C@H](C)[C@H](NC(=O)[C@H](Cc1ccc(O)cc1)NC(=O)[C@@H]1CCCN1C(=O)[C@@H](CCCN)NC(=O)[C@H](CCCNC(=N)N)NC(=O)[C@@H]1CCCN1C(=O)[C@H](CCCCN)NC(=O)[C@H](CC(N)=O)NC(=O)[C@H](CCC(=O)O)NC(=O)[C@H](Cc1ccc(O)cc1)NC(=O)[C@H](CC(C)C)NC(=O)[C@@H]1CCC(=O)N1)C(=O)N[C@@H](CC(C)C)C(=O)O [NT61, [D-Orn^9]NT(1-13)] ([pGlu]LYENKPR[dOrn]PYIL-OH; C-terminus assumed) .
Completion: 4.4
